Numbers sourced from ChEMBL document CHEMBL3588818.

target.or.test.system: Sigma non-opioid intracellular receptor 1 (Rattus norvegicus)
Sequence (Q9R0C9 whole entry): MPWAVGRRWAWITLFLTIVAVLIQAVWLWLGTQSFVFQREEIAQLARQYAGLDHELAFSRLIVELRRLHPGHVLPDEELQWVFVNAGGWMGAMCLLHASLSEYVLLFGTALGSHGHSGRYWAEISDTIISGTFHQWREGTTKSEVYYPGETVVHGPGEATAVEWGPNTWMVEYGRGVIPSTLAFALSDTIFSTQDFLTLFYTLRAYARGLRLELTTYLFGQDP
measurement.notes: Displacement of […] from sigma1 receptor in Sprague-Dawley rat cortical membranes incubated for 2 hrs by liquid scintillation counting based competitive radioligand binding assay
conditions.used: read-out: Ki(app)
pKi: −log10 of the molar value.
# binarize pKi: threshold 7 inclusive, high side True, low side False

Field: example entries. Status: answers known.
molecule="O[C@@H]1CC=CC[C@H]1N1CCC(c2ccccc2)CC1 (racemic)" target_or_test_system="Sigma non-opioid intracellular receptor 1 (Rattus norvegicus)" cat=True
molecule="O[C@@H]1C[C@@H](OCc2ccc(F)cc2)CC[C@H]1N1CCC(Cc2ccccc2)CC1 (racemic)" target_or_test_system="Sigma non-opioid intracellular receptor 1 (Rattus norvegicus)" cat=True
molecule="CCN(CCCc1ccccc1)[C@@H]1C[C@H](OCc2ccc(F)cc2)CC[C@H]1O (racemic)" target_or_test_system="Sigma non-opioid intracellular receptor 1 (Rattus norvegicus)" cat=True
molecule="O=C(Nc1cccc2c1C[C@@H](O)[C@H](N1CCC(Cc3ccccc3)CC1)C2)c1ccc(F)cc1 (racemic)" target_or_test_system="Sigma non-opioid intracellular receptor 1 (Rattus norvegicus)" cat=False
molecule="O[C@@H]1CCCC[C@H]1N1CCC(O)(c2ccccc2)CC1 (racemic)" target_or_test_system="Sigma non-opioid intracellular receptor 1 (Rattus norvegicus)" cat=False
molecule="O[C@@H]1CCCC[C@H]1N1CCC(N2CCCCC2)CC1 (racemic)" target_or_test_system="Sigma non-opioid intracellular receptor 1 (Rattus norvegicus)" cat=False
molecule="O[C@@H]1Cc2ccccc2C[C@H]1N1CCC(N2CCCCC2)CC1 (racemic)" target_or_test_system="Sigma non-opioid intracellular receptor 1 (Rattus norvegicus)" cat=False
molecule="O=C(c1ccc(F)cc1)C1CCN([C@@H]2Cc3ccccc3C[C@H]2O)CC1 (racemic)" target_or_test_system="Sigma non-opioid intracellular receptor 1 (Rattus norvegicus)" cat=False
molecule="O[C@@H]1CC[C@@H](OCc2ccc(F)cc2)C[C@H]1N1CCC(c2ccccc2)(c2ccccc2)CC1 (racemic)" target_or_test_system="Sigma non-opioid intracellular receptor 1 (Rattus norvegicus)" cat=False
molecule="O[C@@H]1CC[C@@H](OCc2ccc(F)cc2)C[C@H]1N1CCC(c2ccncc2)CC1 (racemic)" target_or_test_system="Sigma non-opioid intracellular receptor 1 (Rattus norvegicus)" cat=True

Confirm if pKi reported for the molecule O[C@@H]1CC[C@@H](OCCCF)C[C@H]1N1CCC(c2ccccc2)CC1 (racemic) is 7 or above. True

Confirm if pKi reported for the molecule Nc1cccc2c1C[C@@H](O)[C@H](N1CCC(c3ccccc3)CC1)C2 (racemic) is 7 or above. True

Confirm if pKi reported for the molecule O[C@@H]1C[C@@H](OCc2ccc(F)cc2)CC[C@H]1N1CCC(N2CCCCC2)CC1 (racemic) is 7 or above. False

Confirm if pKi reported for the molecule O[C@@H]1CCCC[C@H]1N1CCC(c2ccccc2)(c2ccccc2)CC1 (racemic) is 7 or above. True

Confirm if pKi reported for the molecule O[C@@H]1CC[C@@H](OCc2ccc(F)cc2)C[C@H]1N1CC=C(c2ccccc2)CC1 (racemic) is 7 or above. True

Confirm if pKi reported for the molecule O=C(Nc1cccc2c1C[C@@H](N1CCC(Cc3ccccc3)CC1)[C@H](O)C2)c1ccc(F)cc1 (racemic) is 7 or above. False

Confirm if pKi reported for the molecule O[C@@H]1C[C@@H](OCc2ccc(F)cc2)CC[C@H]1N1CC=C(c2ccccc2)CC1 (racemic) is 7 or above. True

Confirm if pKi reported for the molecule O[C@@H]1CC[C@@H](OCc2ccc(F)cc2)C[C@H]1N1CCC(Cc2ccccc2)CC1 (racemic) is 7 or above. True

---

So I've got a bunch of compounds here, and I need their Ratio Ki values.
System: PC-12
measurement.notes: Selectivity index, ratio of Ki for sigma1 receptor in Sprague-Dawley rat cortical membranes to Ki for rat VAChT expressed in PC12 cell membranes
Assay type: cell-based
One number for each entry.

These solved cases illustrate the format of a correct answer.
compound="O[C@@H]1CCCC[C@H]1N1CCN(c2ccccc2)CC1 (racemic)" target_or_test_system=PC-12 readout_value=0.1
compound="O[C@@H]1CC[C@@H](OCc2ccc(F)cc2)C[C@H]1N1CCN(c2ccccc2)CC1 (racemic)" target_or_test_system=PC-12 readout_value=0.2
compound="O[C@@H]1CC[C@@H](OCc2ccc(F)cc2)C[C@H]1N1CCC(N2CCCCC2)CC1 (racemic)" target_or_test_system=PC-12 readout_value=0.1

Give Ratio Ki for all compounds that follow.
1. Nc1cccc2c1C[C@@H](O)[C@H](N1CCC(c3ccccc3)CC1)C2 (racemic)
2. O[C@@H]1CCCC[C@H]1N1CCC(O)(c2ccccc2)CC1 (racemic)
3. O=C(Nc1cccc2c1C[C@@H](N1CCC(c3ccccc3)CC1)[C@H](O)C2)c1ccc(F)cc1 (racemic)

1: 0.2; 2: 0.4; 3: 41.2

Give Ratio Ki for all compounds that follow.
1. O[C@@H]1Cc2ccccc2C[C@H]1N1CCC(N2CCCCC2)CC1 (racemic)
2. Nc1cccc2c1C[C@@H](N1CCC(c3ccccc3)CC1)[C@H](O)C2 (racemic)

1. 2.2
2. 4.7

---

measurement.notes: Displacement of [3H]DTG from sigma2 receptor in Sprague-Dawley rat liver membranes incubated for 2 hrs in presence of dextrallorphan by liquid scintillation counting based competitive radioligand binding assay
conditions.used: read-out: Ki(app)
Hi! Just check whether Ki is below 700 nM. Below gives true, equal or above gives false.

Field: example entries. Status: answers known.
compound="CC(=O)C1(c2ccccc2)CCN([C@@H]2CC[C@H](OCc3ccc(F)cc3)C[C@H]2O)CC1 (racemic)" cat=true
compound="O=C(c1ccc(F)cc1)C1CCN([C@@H]2CC[C@H](OCc3ccc(F)cc3)C[C@H]2O)CC1 (racemic)" cat=false
compound="O[C@@H]1CCCC[C@H]1N1CCC(c2ccncc2)CC1 (racemic)" cat=false
compound="O[C@@H]1CC[C@@H](OCc2ccc(F)cc2)C[C@H]1N1CCC(N2CCCCC2)CC1 (racemic)" cat=true
compound="O[C@@H]1C[C@@H](OCc2ccc(F)cc2)CC[C@H]1N1CC=C(c2ccccc2)CC1 (racemic)" cat=true
compound="O=C(Nc1cccc2c1C[C@@H](N1CCC(Cc3ccccc3)CC1)[C@H](O)C2)c1ccc(F)cc1 (racemic)" cat=false

Hello, is Ki of the following compound strictly smaller than 700 nM? O[C@@H]1C[C@@H](OCc2ccc(F)cc2)CC[C@H]1N1CCN(c2ccccc2)CC1 (racemic) false

Hello, is Ki of the following compound strictly smaller than 700 nM? O[C@@H]1Cc2ccccc2C[C@H]1N1CC=C(c2ccccc2)CC1 (racemic) true

Hello, is Ki of the following compound strictly smaller than 700 nM? O[C@@H]1CC[C@@H](OCc2ccc(F)cc2)C[C@H]1N1CCC(c2ccccc2)(c2ccccc2)CC1 (racemic) false

Hello, is Ki of the following compound strictly smaller than 700 nM? O=C(Nc1cccc2c1C[C@@H](O)[C@H](N1CCC(Cc3ccccc3)CC1)C2)c1ccc(F)cc1 (racemic) false

Hello, is Ki of the following compound strictly smaller than 700 nM? O[C@@H]1C[C@@H](OCc2ccc(F)cc2)CC[C@H]1N1CCc2ccccc2C1 (racemic) true

Hello, is Ki of the following compound strictly smaller than 700 nM? O[C@@H]1CC[C@@H](OCc2ccc(F)cc2)C[C@H]1N1CCc2ccccc2C1 (racemic) true

Hello, is Ki of the following compound strictly smaller than 700 nM? O[C@@H]1CC[C@@H](OCc2ccc(F)cc2)C[C@H]1N1CCC(c2ccccc2)CC1 (racemic) true

Hello, is Ki of the following compound strictly smaller than 700 nM? O[C@@H]1Cc2ccccc2C[C@H]1N1CCC(N2CCCCC2)CC1 (racemic) true

Hello, is Ki of the following compound strictly smaller than 700 nM? O[C@@H]1CC[C@@H](OCc2ccc(F)cc2)C[C@H]1N1CC=C(c2ccccc2)CC1 (racemic) true

---

Test system: PC-12
measurement.notes: Selectivity index, ratio of Ki for sigma1 receptor in Sprague-Dawley rat cortical membranes to Ki for rat VAChT expressed in PC12 cell membranes
Format: cell-based
readout.type: Ratio Ki

compound="O[C@@H]1CC[C@@H](OCc2ccc(F)cc2)C[C@H]1N1CCC(Cc2ccccc2)CC1 (racemic)" target_or_test_system=PC-12 readout_value=0.2
compound="O[C@@H]1CCCC[C@H]1N1CCC(c2ccccc2)(c2ccccc2)CC1 (racemic)" target_or_test_system=PC-12 readout_value="< 0.1"
compound="O[C@@H]1CC[C@@H](OCc2ccc(F)cc2)C[C@H]1N1CCC(O)(c2ccccc2)CC1 (racemic)" target_or_test_system=PC-12 readout_value=0.2
compound="O[C@@H]1CC=CC[C@H]1N1CCC(c2ccccc2)CC1 (racemic)" target_or_test_system=PC-12 readout_value=0.3

Give Ratio Ki for all compounds that follow.
1. O=C(Nc1cccc2c1C[C@@H](N1CCC(Cc3ccccc3)CC1)[C@H](O)C2)c1ccc(F)cc1 (racemic)
2. O[C@@H]1Cc2ccccc2C[C@H]1N1CCC(Cc2ccccc2)CC1 (racemic)
3. O[C@@H]1CCCC[C@H]1N1CC=C(c2ccccc2)CC1 (racemic)
4. O[C@@H]1Cc2cccc(OCCF)c2C[C@H]1N1CCC(c2ccccc2)CC1 (racemic)

3.4
2.8
< 0.1
10.7

Give Ratio Ki for all compounds that follow.
1. O[C@@H]1C[C@@H](OCCCF)CC[C@H]1N1CCC(c2ccccc2)CC1 (racemic)
2. O[C@@H]1CC[C@@H](OCc2ccc(F)cc2)C[C@H]1N1CCC(c2ccncc2)CC1 (racemic)
3. O[C@@H]1C[C@@H](OCc2ccc(F)cc2)CC[C@H]1N1CCC(c2ccccc2)(c2ccccc2)CC1 (racemic)
4. O[C@@H]1CC[C@@H](OCc2ccc(F)cc2)C[C@H]1N1CCC(c2ccccc2)CC1 (racemic)
5. O[C@@H]1CC[C@@H](OCCCF)C[C@H]1N1CCC(c2ccccc2)CC1 (racemic)
6. CCN(CCCc1ccccc1)[C@@H]1CC[C@H](OCc2ccc(F)cc2)C[C@H]1O (racemic)
7. CC(=O)C1(c2ccccc2)CCN([C@@H]2C[C@H](OCc3ccc(F)cc3)CC[C@H]2O)CC1 (racemic)

[1.6, "< 0.1", 0.3, 0.7, 0.5, "< 0.1", 0.2]

Give Ratio Ki for all compounds that follow.
1. O[C@@H]1C[C@@H](OCc2ccc(F)cc2)CC[C@H]1N1CCC(c2ccccc2)CC1 (racemic)
2. O=C(Nc1cccc2c1C[C@@H](O)[C@H](N1CCC(c3ccccc3)CC1)C2)c1ccc(F)cc1 (racemic)
3. O[C@@H]1CC[C@@H](OCc2ccc(F)cc2)C[C@H]1N1CCC(c2ccccc2)(c2ccccc2)CC1 (racemic)

["< 0.1", 3.3, 0.8]
